Give Tmax for every item shown.
- protocol_text: Pharmacokinetic study after oral administration of R. acetosa extract to rats
- Format: in vivo, Sprague‒Dawley rats
- test_parameters: male, Sprague-Dawley, plasma; rat, oral R. acetosa extract 2 g/kg; read-out: Median Tmax (converted)

Value of measured Tmax for the entry Cc1cc(O)c2c(c1)C(=O)c1cc(O)cc(O)c1C2=O [E, emodin] : 15 min

Further cases:
Value of measured Tmax for the entry Cc1cc(O)c2c(c1)C(=O)c1cccc(O)c1C2=O [C, chrysophanol] : 15 min

###

Give Processed Sample Stability, Accuracy for every item shown.
- protocol_text: Stability of the analytes in rat plasma (method validation)
- Assay type: in vitro ADME
- test_parameters: processed rat plasma sample, 4 °C 24 h, n = 3; middle QC (P, E, C 150; PG, EG, CG 75 ng/mL)
One number for each entry, in %.

Solved cases (2 shown):
Value of measured Processed Sample Stability, Accuracy for the entry Cc1cc(O)c2c(c1)C(=O)c1cc(O)cc(O[C@@H]3O[C@H](CO)[C@@H](O)[C@H](O)[C@H]3O)c1C2=O [EG, emodin-8-O-β-D-glucoside] : 107.9

Value of measured Processed Sample Stability, Accuracy for the entry Cc1cc(O)c2c(c1)C(=O)c1cccc(O)c1C2=O [C, chrysophanol] : 103.7

--- query ---
Value of measured Processed Sample Stability, Accuracy for the entry Cc1cc(O)c2c(c1)C(=O)c1cc(O)cc(O)c1C2=O [E, emodin] : 108.0

###

Give half-life for every item shown.
- protocol_text: Pharmacokinetic study after oral administration of R. acetosa extract to rats
- Format: in vivo, Sprague‒Dawley rats
- test_parameters: male, Sprague-Dawley, plasma; rat, oral R. acetosa extract 2 g/kg, n = 3, mean ± SD
Give bare numbers, in h.

Solved cases (2 shown):
Value of measured half-life for the entry COc1cc(O[C@@H]2O[C@H](CO)[C@@H](O)[C@H](O)[C@H]2O)c2c(c1)C(=O)c1cc(C)cc(O)c1C2=O [PG, physcion-8-O-β-D-glucoside] : 6.2

Value of measured half-life for the entry Cc1cc(O)c2c(c1)C(=O)c1cccc(O[C@@H]3O[C@H](CO)[C@@H](O)[C@H](O)[C@H]3O)c1C2=O [CG, chrysophanol-8-O-β-D-glucoside] : 4.8

--- query ---
Value of measured half-life for the entry "Cc1cc(O)c2c(c1)C(=O)c1cccc(O)c1C2=O" : 3.9

###

Give mean concentration in stock solution compared with fresh stock solutions for every item shown.
- protocol_text: Stability of analytes in stock solution
- Type: physicochemical
- test_parameters: stock solutions stored at room temperature for 4 h, n = 3
Answers are plain numbers, in %.

Solved cases (5 shown):
Value of measured mean concentration in stock solution compared with fresh stock solutions for the entry "Cc1cc(O)c2c(c1)C(=O)c1cc(O)cc(O)c1C2=O" : 94.8

Value of measured mean concentration in stock solution compared with fresh stock solutions for the entry "COc1cc(O)c2c(c1)C(=O)c1cc(C)cc(O)c1C2=O" : 99.2

Value of measured mean concentration in stock solution compared with fresh stock solutions for the entry "Cc1cc(O)c2c(c1)C(=O)c1cccc(O)c1C2=O" : 95.9

Value of measured mean concentration in stock solution compared with fresh stock solutions for the entry Cc1cc(O)c2c(c1)C(=O)c1cc(O)cc(O[C@@H]3O[C@H](CO)[C@@H](O)[C@H](O)[C@H]3O)c1C2=O [EG, emodin-8-O-β-D-glucoside] : 100.4

Value of measured mean concentration in stock solution compared with fresh stock solutions for the entry COc1cc(O[C@@H]2O[C@H](CO)[C@@H](O)[C@H](O)[C@H]2O)c2c(c1)C(=O)c1cc(C)cc(O)c1C2=O [PG, physcion-8-O-β-D-glucoside] : 102.4

--- query ---
Value of measured mean concentration in stock solution compared with fresh stock solutions for the entry Cc1cc(O)c2c(c1)C(=O)c1cccc(O[C@@H]3O[C@H](CO)[C@@H](O)[C@H](O)[C@H]3O)c1C2=O [CG, chrysophanol-8-O-β-D-glucoside] : 101.7
